System: SN12C
Test protocol: NCI DTP antiproliferative screen, renal SN12C
Format: cell-based, human
Metric: GI50 (µM)
Your answer should be a plain number; it is taken to be in µM.

Incoming: I am curious: what GI50 value has been reported for COc1cc2cnc3c(c2cc1OC)Cc1c-3cc2c(c1CN1CCOCC1)OCO2 [Compound 14e] ?
Outgoing: 2.3

Incoming: // query GI50 value for entry COc1cc2cnc3c(c2cc1OC)Cc1c-3cc2c(c1Cn1ccnc1)OCO2 [Compound 14c]
Outgoing: 0.6

###

System: SF-539
Test protocol: NCI DTP antiproliferative screen, CNS SF-539
Assay type: cell-based, human
Metric: GI50 (nM)
Please respond with the number in nM and leave the unit unwritten.

COc1cc2cnc3c(c2cc1OC)Cc1c-3cc2c(c1CN(C)CCN(C)C)OCO2 [Compound 14f] ... 11000

Incoming: So what does the record say about GI50 for COc1cc2cnc3c(c2cc1OC)Cc1c-3cc2c(c1Cn1ccnc1)OCO2 [Compound 14c] ?
Outgoing: 280

Incoming: What measured GI50 goes with COc1cc2cnc3c(c2cc1OC)Cc1c-3cc2c(c1CN1CCOCC1)OCO2 [Compound 14e] ?
Outgoing: 1800
